# Assay target: hSSTR1 (Homo sapiens, UniProt P30872)
# Construct: expressed in transfected cells; host or cells: CHO-K1 or CCL39 cells
# Sequence (P30872 whole entry): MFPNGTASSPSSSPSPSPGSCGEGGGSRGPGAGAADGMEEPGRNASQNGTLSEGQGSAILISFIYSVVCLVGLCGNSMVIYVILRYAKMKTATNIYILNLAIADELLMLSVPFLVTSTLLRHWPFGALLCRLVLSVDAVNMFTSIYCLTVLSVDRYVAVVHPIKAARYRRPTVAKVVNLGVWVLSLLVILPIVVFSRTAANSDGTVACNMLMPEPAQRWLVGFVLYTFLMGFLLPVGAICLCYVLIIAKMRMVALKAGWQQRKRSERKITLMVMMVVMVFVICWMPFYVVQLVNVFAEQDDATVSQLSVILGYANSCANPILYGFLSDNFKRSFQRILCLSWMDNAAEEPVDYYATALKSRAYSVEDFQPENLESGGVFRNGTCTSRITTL
# Experiment description: Receptor autoradiography, displacement of 125I-[Leu8,D-Trp22,Tyr25]-SRIF-28 from membrane pellet sections
# Format: binding
# Experimental setup: Table 3; mean ± SEM when N ≧ 3; read-out: sst1 binding affinity (IC50)
Bridge positions count the residues as written; N and C are the ends. Square brackets hold non-standard residues; d marks the D form. Peptide text beside a SMILES is read from it. * marks the point of attachment. DOTA = O=C(O)CN1CCN(CC(=O)O)CCN(CC(=O)*)CCN(CC(=O)O)CC1; Phe(4-NO2) = N[C@@H](Cc1ccc([N+](=O)[O-])cc1)C(=O)O; dPhe(4-NHCONH2) = NC(=O)Nc1ccc(C[C@@H](N)C(=O)O)cc1; 2Nal = N[C@@H](Cc1ccc2ccccc2c1)C(=O)O
Readout label: IC50

Compound	Readout label	Assay value
C[C@@H](O)[C@@H]1NC(=O)[C@H](CCCCN)NC(=O)[C@@H](Cc2c[nH]c3ccccc23)NC(=O)[C@H](Cc2ccc(NC(N)=O)cc2)NC(=O)[C@H](NC(=O)[C@@H](N)Cc2ccc(Cl)cc2)CSSC[C@@H](C(=O)N[C@H](Cc2ccc(NC(N)=O)cc2)C(N)=O)NC1=O	IC50	> 1 µM

Continue with the next compound.
Asked: Form field: reported IC50 of C[C@@H](O)[C@@H]1NC(=O)[C@H](CCCCN)NC(=O)[C@@H](Cc2ccc(NC(N)=O)cc2)NC(=O)[C@H](Cc2ccc(O)cc2)NC(=O)[C@H](NC(=O)[C@H](Cc2ccc([N+](=O)[O-])cc2)NC(=O)CN2CCN(CC(=O)O)CCN(CC(=O)O)CCN(CC(=O)O)CC2)CSSC[C@@H](C(=O)N[C@@H](Cc2ccc3ccccc3c2)C(N)=O)NC1=O [Peptide No. 5] ({DOTA}-[Phe(4-NO2)][dC]Y[dPhe(4-NHCONH2)]KTC[2Nal]-NH2; disulfide 2-7)
Given back: > 1 µM

###

IC50 for assorted compounds
# Assay target: hSSTR5 (Homo sapiens, UniProt P35346)
# Construct: expressed in transfected cells; host or cells: CHO-K1 or CCL39 cells
# Sequence (P35346 whole entry): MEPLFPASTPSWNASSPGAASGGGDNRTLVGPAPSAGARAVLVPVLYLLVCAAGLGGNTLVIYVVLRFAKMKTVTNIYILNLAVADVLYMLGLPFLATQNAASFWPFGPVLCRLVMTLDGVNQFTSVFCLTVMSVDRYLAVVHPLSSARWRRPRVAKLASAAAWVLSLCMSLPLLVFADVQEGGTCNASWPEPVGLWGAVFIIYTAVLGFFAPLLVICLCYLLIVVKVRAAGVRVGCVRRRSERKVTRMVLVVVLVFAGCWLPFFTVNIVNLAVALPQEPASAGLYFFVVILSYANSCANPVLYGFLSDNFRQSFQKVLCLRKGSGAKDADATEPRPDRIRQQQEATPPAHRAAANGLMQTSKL
# Experiment description: Receptor autoradiography, displacement of 125I-[Leu8,D-Trp22,Tyr25]-SRIF-28 from membrane pellet sections
# Assay type: binding
# Experimental setup: Table 3; mean ± SEM when N ≧ 3; read-out: sst5 binding affinity (IC50)
Bridge positions count the residues as written; N and C are the ends. Square brackets hold non-standard residues; d marks the D form. Peptide text beside a SMILES is read from it. dPhe(4-NHCONH2) = NC(=O)Nc1ccc(C[C@@H](N)C(=O)O)cc1; Phe(4-NHCONH2) = NC(=O)Nc1ccc(C[C@H](N)C(=O)O)cc1; dTrp(5-F) = N[C@H](Cc1c[nH]c2ccc(F)cc12)C(=O)O; Phe(4-Cl) = N[C@@H](Cc1ccc(Cl)cc1)C(=O)O; 2Nal = N[C@@H](Cc1ccc2ccccc2c1)C(=O)O
Express it in µM; write the number only.

Compound	IC50 (µM)
C[C@@H](O)[C@@H]1NC(=O)[C@H](CCCCN)NC(=O)[C@@H](Cc2c[nH]c3ccccc23)NC(=O)[C@H](Cc2ccc(NC(N)=O)cc2)NC(=O)[C@H](NC(=O)[C@@H](N)Cc2ccc(Cl)cc2)CSSC[C@@H](C(=O)N[C@H](Cc2ccc(NC(N)=O)cc2)C(=O)NCC(=O)O)NC1=O [compound 22] (H-[Phe(4-Cl)][dC][Phe(4-NHCONH2)][dW]KTC[dPhe(4-NHCONH2)]G-OH; disulfide 2-7)	0.81
C[C@@H](O)[C@@H]1NC(=O)[C@H](CCCCN)NC(=O)[C@@H](Cc2c[nH]c3ccc(F)cc23)NC(=O)[C@H](Cc2ccc(NC(N)=O)cc2)NC(=O)[C@H](NC(=O)[C@@H](N)Cc2ccc(Cl)cc2)CSSC[C@@H](C(=O)N[C@@H](Cc2ccc3ccccc3c2)C(N)=O)NC1=O [compound 25] (H-[Phe(4-Cl)][dC][Phe(4-NHCONH2)][dTrp(5-F)]KTC[2Nal]-NH2; disulfide 2-7)	0.094

Asked: Lab note: need IC50 for CONC(=O)Nc1ccc(C[C@@H]2NC(=O)[C@H](NC(=O)[C@@H](N)Cc3ccc(Cl)cc3)CSSC[C@@H](C(=O)N[C@@H](Cc3ccc4ccccc4c3)C(N)=O)NC(=O)[C@H]([C@@H](C)O)NC(=O)[C@H](CCCCN)NC(=O)[C@@H](Cc3c[nH]c4ccccc34)NC2=O)cc1 [compound 23] on hSSTR5 (Homo sapiens, UniProt P35346), anyone have it?
Given back: 0.313
